# EXPERIMENT SUMMARY: Cytotoxicity against BALB/c mouse peritoneal macrophages assessed as reduction in cell viability measured after 48 hrs by luminescence based CellTiter-Glo assay
# Type: toxicity, Peritoneal macrophage
I'd be grateful if you could share measured CC50 at 48 h for these entries.
Give bare numbers, in nM.

INSERT INTO assay_data (molecule, observed_result) VALUES
  ('COc1ccc(-c2csc(N/N=C/c3ccccn3)n2)cc1', 1350);

--- query ---
**Q:** Quick check: CC50 at 48 h of C/C(=N\Nc1nc(-c2ccc(Br)cc2)cs1)c1ccccn1 ?
**A:** 2950

* * *

Exercise: for every item that follows, state its recorded IC50.
# System: Leishmania infantum
# EXPERIMENT SUMMARY: Antileishmanial activity against promastigote form of Leishmania infantum BH 46 assessed as parasite growth inhibition measured after 48 hrs by Celltiter-Glo assay
# Assay type: functional, organism-based
# REPORTED CONDITIONS: BH 46, 48 h
One number for each entry, in nM.

Give measured IC50 for every item shown.
1. C/C(=N\Nc1nc(-c2ccc(Br)cc2)cs1)c1ccccn1
2. COc1ccc(-c2csc(N/N=C/c3ccccn3)n2)cc1

**A:**
1: 3120; 2: 2780

* * *

# Tested on: Leishmania amazonensis
# EXPERIMENT SUMMARY: Antileishmanial activity against promastigote form of Leishmania amazonensis MHOM/BR/79/Maria assessed as inhibition of parasite growth measured after 48 hrs by resazurin staining based fluorescence analysis
# Type: functional, organism-based
QUANTITY MEASURED: IC50 (µM)
Give bare numbers, in µM.

**Q:** Return reported IC50; argument: FC(F)(F)c1nc2cc(Cl)c(Cl)cc2[nH]1
**A:** 4.11

* * *

# Tested on: Leishmania amazonensis
# EXPERIMENT SUMMARY: Antileishmanial activity against promastigote form of Leishmania amazonensis (MHOM/BR/71973/M2269) assessed as parasite growth inhibition measured after 72 hrs by Neubauer counting chamber based analysis
# Format: functional, organism-based
# REPORTED CONDITIONS: MHOM/BR/71973/M2269, 72 h
QUANTITY MEASURED: pIC50
Answers are plain numbers, as −log10 of the molar value.

**Q:** Recorded pIC50 of CC(C)COc1ccc2c(-c3ccccc3)cc(=O)oc2c1 , please.
**A:** 4.67

* * *

Provide the recorded IC50 for the entries that follow.
# Tested on: Leishmania amazonensis
# EXPERIMENT SUMMARY: Antileishmanial activity against promastigote form of Leishmania amazonensis MHOM/BR/77/LTB0016 incubated for 24 hrs by MTT assay
# Type: functional, organism-based
# REPORTED CONDITIONS: MHOM/BR/77/LTB0016, 24 h
Give bare numbers, in µM.

INSERT INTO assay_data (compound, quantity_measured, observed_result) VALUES
  ('N=C(N)c1ccc(OCCCCCOc2ccc(C(=N)N)cc2)cc1 [PENTAMIDINE]', 'IC50', 12.3);

API: the following record is the query input.
**Q:** Value wanted: IC50 (Leishmania amazonensis) of entry NC(=S)N/N=C(\C=C\c1ccc(Cl)cc1)c1ccccc1
**A:** 5.22

* * *

# EXPERIMENT SUMMARY: Cytotoxicity against mouse J774.A1 cells assessed as reduction in cell viability incubated for 48 hrs by MTT assay
# Format: toxicity, cell-based
QUANTITY MEASURED: CC50 at 48 h

**Q:** CC50 at 48 h lookup needed for O=C1c2ccccc2C(=O)N1CCn1cc(-c2ccccc2)nn1 , thanks.
**A:** > 500 µM

* * *

# Tested on: Leishmania donovani
# EXPERIMENT SUMMARY: Antileishmanial activity against Leishmania donovani Bob intracellular amastigotes assessed as parasite growth inhibition incubated for 72 hrs by LDH assay
# Assay type: functional, organism-based
QUANTITY MEASURED: IC50 (µM)
Numbers only, in µM.

**Q:** Report IC50 for COC(=O)C(N)Cc1c[nH]c2ccccc12 (stereo unspecified) please.
**A:** 18.2

* * *

# EXPERIMENT SUMMARY: Selectivity index, ratio of CC50 for cytotoxicity against human THP1 cells to IC50 for antileishmanial activity against promastigote form of Leishmania donovani
# Assay type: toxicity, cell-based
# REPORTED CONDITIONS: read-out: Ratio CC50/IC50
Exercise: state measured selectivity ratio for each of the compounds provided.

INSERT INTO results (molecule, quantity_measured, observed_result) VALUES
  ('Cc1cc(N2C(=O)C(Cl)=C(Cl)C2=O)ccc1[N+](=O)[O-]', 'selectivity ratio', '> 781');

**Q:** State the recorded selectivity ratio for this entry: CC(C)CCN1C(=O)C=CC1=O
**A:** > 781

Ref: ChEMBL document CHEMBL5096192
